Target: Adenosine receptor A3 (Homo sapiens, UniProt P0DMS8)
Sequence (P0DMS8 whole entry): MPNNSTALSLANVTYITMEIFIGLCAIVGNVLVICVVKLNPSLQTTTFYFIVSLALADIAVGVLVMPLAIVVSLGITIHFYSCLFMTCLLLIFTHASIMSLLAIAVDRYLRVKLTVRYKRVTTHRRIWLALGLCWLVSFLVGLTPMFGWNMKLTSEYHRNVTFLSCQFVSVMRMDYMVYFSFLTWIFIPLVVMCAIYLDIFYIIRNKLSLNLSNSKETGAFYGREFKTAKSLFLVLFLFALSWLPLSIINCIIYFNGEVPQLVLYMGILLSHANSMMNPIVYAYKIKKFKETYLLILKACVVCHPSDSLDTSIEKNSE
readout kind: log10 of Ki (log10 of the value in µM)
Please note: log10 values; quantity Ki; unit µM.

COc1ccc(CCNc2nc(N)c3nc(-c4ccco4)sc3n2)cc1OC: -0.08
Nc1nc(Nc2ccccc2)nc2sc(-c3ccco3)nc12: -0.49
COc1ccc(CCNc2nc(N)c3nc(-c4ccco4)sc3n2)cc1: 0.42

**Query** Query (molecule): Nc1nc(NCc2ccccc2)nc2sc(-c3ccco3)nc12 ; field requested: log10 of Ki
**Result** -1.43

**Query** Can you look up the measured log10 of Ki of COc1cccc(CCNc2nc(N)c3nc(-c4ccco4)sc3n2)c1 for me?
**Result** -0.54

----------
molecular target: Adenosine receptor A2b (Homo sapiens); assay: Inverse agonist activity at human adenosine A2B receptor expressed in CHO cells assessed as inhibition of cAMP accumulation at 10 uM measured after 150 mins in presence of [3H]cAMP by scintillation counting method relative to control; type: functional, cell-based
Entries annotated with measured inhibition
State the answer as a number, implicitly in %.

Examples from the recorded data:
COc1cccc(CNc2nc(N)c3nc(-c4ccco4)sc3n2)c1: 99
COc1ccc(CNc2nc(N)c3nc(-c4ccco4)sc3n2)cc1: 97
Nc1nc(NCCc2ccccc2)nc2sc(-c3ccco3)nc12: 102
COc1ccccc1CNc1nc(N)c2nc(-c3ccco3)sc2n1: 94
Nc1nc(NCCc2ccc(O)cc2)nc2sc(-c3ccco3)nc12: 92

**Query** Looking for the measured inhibition of COc1ccc(CCNc2nc(N)c3nc(-c4ccco4)sc3n2)cc1 , can you help?
**Result** 103

**Query** Give the measured inhibition of Nc1nc(NCCc2ccc(O)cc2)nc2nc(-c3ccco3)nn12 [ZM-241385] .
**Result** 109

**Query** Looking for the measured inhibition of Nc1nc(NCc2cccc(O)c2)nc2sc(-c3ccco3)nc12 , can you help?
**Result** 95

**Query** Which inhibition is listed for Nc1nc(NCc2ccccc2)nc2sc(-c3ccco3)nc12 ?
**Result** 95

----------
Parameter Ki, tested on UniProt:P29274, listed per item.
Sequence (P29274 whole entry): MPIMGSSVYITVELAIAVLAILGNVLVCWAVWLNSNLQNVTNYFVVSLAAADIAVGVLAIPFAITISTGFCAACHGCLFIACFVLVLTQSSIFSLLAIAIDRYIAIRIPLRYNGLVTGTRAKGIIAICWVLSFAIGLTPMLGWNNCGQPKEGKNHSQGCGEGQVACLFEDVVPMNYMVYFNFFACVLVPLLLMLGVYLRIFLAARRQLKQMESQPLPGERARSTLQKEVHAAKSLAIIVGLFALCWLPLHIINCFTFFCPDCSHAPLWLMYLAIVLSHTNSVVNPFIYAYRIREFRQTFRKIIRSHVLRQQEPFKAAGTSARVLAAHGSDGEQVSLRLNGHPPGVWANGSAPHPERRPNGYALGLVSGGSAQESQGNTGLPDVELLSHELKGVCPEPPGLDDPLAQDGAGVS
Field: numeric (µM). Do not append units.

Answered cases to consult:
Nc1nc(NCCc2cccc(O)c2)nc2sc(-c3ccco3)nc12: 0.016
COc1cccc(CCNc2nc(N)c3nc(-c4ccco4)sc3n2)c1: 0.017
Nc1nc(NCCc2ccc(O)c(O)c2)nc2sc(-c3ccco3)nc12: 0.04

The record that follows has no Ki shown yet.
**Query** Give UniProt:P29274 Ki for Nc1nc(NCc2ccccc2)nc2sc(-c3ccco3)nc12
**Result** 0.022
